Recorded Mean K b for the following compounds
Biological target: maytansine site of tubulin (Bos taurus, UniProt Q6B856)
Construct: Purified calf brain tubulin and chemicals were obtained as previously described; from tissue; host or cells: calf brain
Sequence (Q6B856 whole entry): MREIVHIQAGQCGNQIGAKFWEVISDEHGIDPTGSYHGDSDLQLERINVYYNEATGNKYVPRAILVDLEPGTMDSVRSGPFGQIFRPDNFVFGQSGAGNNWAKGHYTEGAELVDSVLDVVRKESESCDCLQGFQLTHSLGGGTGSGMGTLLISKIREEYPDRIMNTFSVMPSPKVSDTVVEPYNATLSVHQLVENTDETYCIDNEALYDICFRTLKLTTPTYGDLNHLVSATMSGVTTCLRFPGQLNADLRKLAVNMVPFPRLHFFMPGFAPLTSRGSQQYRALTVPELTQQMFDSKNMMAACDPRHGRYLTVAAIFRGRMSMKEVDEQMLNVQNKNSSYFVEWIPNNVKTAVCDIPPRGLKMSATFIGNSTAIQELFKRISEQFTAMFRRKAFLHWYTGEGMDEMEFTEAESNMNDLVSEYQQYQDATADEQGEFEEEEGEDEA
Sequence (P81947 whole entry partner): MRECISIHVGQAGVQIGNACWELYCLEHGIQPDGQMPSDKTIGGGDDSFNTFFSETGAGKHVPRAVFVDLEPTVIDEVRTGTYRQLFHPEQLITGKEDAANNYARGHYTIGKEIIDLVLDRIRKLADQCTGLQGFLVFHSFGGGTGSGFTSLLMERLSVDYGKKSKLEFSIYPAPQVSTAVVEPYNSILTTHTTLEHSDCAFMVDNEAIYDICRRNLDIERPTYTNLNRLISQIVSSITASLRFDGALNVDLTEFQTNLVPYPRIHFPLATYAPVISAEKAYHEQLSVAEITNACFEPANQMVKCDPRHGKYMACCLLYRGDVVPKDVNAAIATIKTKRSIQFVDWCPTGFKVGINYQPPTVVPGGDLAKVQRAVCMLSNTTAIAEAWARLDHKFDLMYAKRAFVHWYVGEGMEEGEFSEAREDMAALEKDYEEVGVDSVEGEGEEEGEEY
Test: biochemical
Assay type: binding, calf
Settings: competition against Fc maytansine
reported metric: Mean K b

{"compound": "COc1cc2cc(c1Cl)N(C)C(=O)CC(OC(C)=O)C1(C)OC1C(C)C1C=C(NC(=O)O1)C(OC)C=CC=C(C)C2 (centres unmarked) [5 b]", "recorded result": "1.17±0.04×10^6 M^−1"}
{"compound": "C#CCCCCC(=O)OC1CC(=O)N(C)c2cc(cc(OC)c2Cl)CC(C)=CC=CC(OC)C2=CC(OC(=O)N2)C(C)C2OC12C (centres unmarked) [5 c]", "recorded result": "5.6±0.4×10^5 M^−1"}
{"compound": "COc1cc2cc(c1Cl)N(C)C(=O)CC(OC(=O)c1ccccc1)C1(C)OC1C(C)C1C=C(NC(=O)O1)C(OC)C=CC=C(C)C2 (centres unmarked) [5 a]", "recorded result": "9.2±0.3×10^5 M^−1"}
{"compound": "COc1cc2cc(c1Cl)N(C)C(=O)CC(O)C1(C)OC1C(C)C=CC(=O)C(OC)C=CC=C(C)C2 (centres unmarked) [Compound 2]", "recorded result": "1.42±0.08×10^6 M^−1"}
{"compound": "COc1cc2cc(c1Cl)N(C)C(=O)C[C@H](OC(=O)[C@H](C)N(C)C(C)=O)[C@]1(C)O[C@H]1[C@H](C)[C@@H]1C[C@@](O)(NC(=O)O1)[C@H](OC)/C=C/C=C(\\C)C2 [1 a, Maytansine, reference compound]", "recorded result": "9.0±1.3×10^7 M^−1"}
